Test system: Staphylococcus aureus ATCC 29213
EXPERIMENT_NOTES: MBC, agar aliquot subculture method
Format: cell-based
ASSAY_CONTEXT: ATCC29213, SA = S. aureus ATCC 29213, read-out: MBC
Method: All the investigated compounds were screened for in vitro antibacterial activity against the reference and quality control strain Staphylococcus aureus ATCC 29213 and clinical isolates of methicillin-resistant S. aureus (MRSA) 63718, SA 630, and SA 3202 [14]. Activities are expressed as the minimum inhibitory concentrations (MICs), see Table 2. In addition to the MICs, the minimum bactericidal concentrations (MBCs) were also determined. […]
REPORTED_ENDPOINT: MBC (µM)
Just the number in µM, nothing appended.

Field: example entries. Status: answers known.
> print(dat)
                                   molecule  unit.tag  readout.number
1  O=C(NCCc1ccccc1)Oc1c(C(=O)Nc2cc(Cl)c(Cl)cc2Cl)ccc2ccccc12 [Compound 13]        µM           0.062
2  O=C(NC1CCCCC1)Oc1c(C(=O)Nc2cc(Cl)c(Cl)cc2Cl)ccc2ccccc12 [Compound 11]        µM           0.508
3  O=C(NC1CCCCCC1)Oc1c(C(=O)Nc2cc(Cl)c(Cl)cc2Cl)ccc2ccccc12 [Compound 12]        µM           0.494
4  CCCCCCCNC(=O)Oc1c(C(=O)Nc2cc(Cl)c(Cl)cc2Cl)ccc2ccccc12 [Compound 7]        µM           0.124

QUERY: Which MBC is listed for CCCCCCCCNC(=O)Oc1c(C(=O)Nc2cc(Cl)c(Cl)cc2Cl)ccc2ccccc12 [Compound 8] ?
RESULT: 0.958

QUERY: How about O=C(NC1CCCC1)Oc1c(C(=O)Nc2cc(Cl)c(Cl)cc2Cl)ccc2ccccc12 [Compound 10] ?
RESULT: 0.262

QUERY: How about CC(C)NC(=O)Oc1c(C(=O)Nc2cc(Cl)c(Cl)cc2Cl)ccc2ccccc12 [Compound 9] ?
RESULT: 0.018

----------
EXPERIMENT_NOTES: Lipophilicity determination by RP-HPLC (log k, log D)
Type: physicochemical
ASSAY_CONTEXT: RP-HPLC, MeOH 72%/water 28%
Protocol: Lipophilicity was measured by reversed-phase high performance liquid chromatography (RP-HPLC) under isocratic conditions with methanol as the organic modifier in the aqueous mobile phase and the logarithm of the capacity factor k was calculated, which is used as the lipophilicity index converted to the log P scale. […] Moreover, for each R substituent, bulkiness expressed as molar volume (MV [cm^3]), a parameter describing the tail length/branching of each carbamates, was calculated. […]
This listing pairs compounds with measured log k.
Hey, just send me the number, nothing else.

Field: example entries. Status: answers known.
> print(dat)
                           smiles.structure  readout.number
1  CC(C)NC(=O)Oc1c(C(=O)Nc2cc(Cl)c(Cl)cc2Cl)ccc2ccccc12          0.9526
2  O=C(NC1CCCC1)Oc1c(C(=O)Nc2cc(Cl)c(Cl)cc2Cl)ccc2ccccc12          1.1481

QUERY: Which log k is listed for `CCCNC(=O)Oc1c(C(=O)Nc2cc(Cl)c(Cl)cc2Cl)ccc2ccccc12` ?
RESULT: 0.9689

QUERY: How about `CCCCCCCCNC(=O)Oc1c(C(=O)Nc2cc(Cl)c(Cl)cc2Cl)ccc2ccccc12` ?
RESULT: 1.8654

QUERY: How about `O=C(NC1CCCCC1)Oc1c(C(=O)Nc2cc(Cl)c(Cl)cc2Cl)ccc2ccccc12` ?
RESULT: 1.2911

QUERY: How about `CCCCNC(=O)Oc1c(C(=O)Nc2cc(Cl)c(Cl)cc2Cl)ccc2ccccc12` ?
RESULT: 1.0756

QUERY: How about `CCCCCNC(=O)Oc1c(C(=O)Nc2cc(Cl)c(Cl)cc2Cl)ccc2ccccc12` ?
RESULT: 1.3051

QUERY: How about `CCCCCCNC(=O)Oc1c(C(=O)Nc2cc(Cl)c(Cl)cc2Cl)ccc2ccccc12` ?
RESULT: 1.4883
